Parameter 'readout' = pKi; parameter 'system' = Histamine H1 receptor (Homo sapiens).
Sequence (P35367 whole entry): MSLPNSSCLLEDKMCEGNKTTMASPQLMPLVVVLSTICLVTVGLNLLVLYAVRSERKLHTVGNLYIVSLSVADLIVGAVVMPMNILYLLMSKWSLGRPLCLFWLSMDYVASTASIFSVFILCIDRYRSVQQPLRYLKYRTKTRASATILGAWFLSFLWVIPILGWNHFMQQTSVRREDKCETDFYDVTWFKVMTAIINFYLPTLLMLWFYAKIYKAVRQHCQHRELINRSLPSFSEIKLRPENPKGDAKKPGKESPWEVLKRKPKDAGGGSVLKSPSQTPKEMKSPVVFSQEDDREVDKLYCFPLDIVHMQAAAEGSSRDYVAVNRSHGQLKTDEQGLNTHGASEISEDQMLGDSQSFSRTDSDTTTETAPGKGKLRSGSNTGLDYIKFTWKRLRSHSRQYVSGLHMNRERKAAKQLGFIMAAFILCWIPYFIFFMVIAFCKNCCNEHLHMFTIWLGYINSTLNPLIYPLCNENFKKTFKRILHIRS
The meaning of pKi here: minus log10 of the concentration in molar units.

CN(C)CC1C[C@@H]2c3ccccc3COc3ccccc3[C@H]2O1 (stereo not given in full)	7.69
OCCN1CCN(CC2C[C@@H]3c4ccccc4Cc4ccccc4[C@H]3O2)CC1 (stereo not given in full)	8.43
CNC[C@@H]1CC2c3ccccc3Cc3ccccc3C2O1 (single isomer, unassigned)	8.46
CN(C)C[C@@H]1C[C@H]2c3ccccc3Cc3ccccc3[C@@H]2O1	8.43

Shift focus to the following entry.
input: Provide pKi, tested on Histamine H1 receptor (Homo sapiens), for c1ccc2c(c1)Cc1ccccc1[C@H]1OC(CN3CCOCC3)C[C@H]21 (stereo not given in full) .
output: 8.63

---

molecular target: 5-hydroxytryptamine receptor 2C (Homo sapiens, UniProt P28335)
pKi: −log10 of the molar value.
Could you label it 1 (yes) if measured pKi is 7 or higher, and 0 (no) otherwise?

Reference set (2 entries):
CN(C)C[C@@H]1C[C@@H]2c3ccccc3Cc3ccccc3[C@H]2O1	1 (yes)
CN(C)CC1C[C@@H]2c3ccccc3N(C)c3ccccc3[C@H]2O1 (stereo not given in full)	1 (yes)

Next:
input: Threshold query (pKi >= 7) on CN(C)CC1C[C@H]2c3ccccc3Oc3ccccc3[C@H]2O1 (stereo not given in full)
output: 0 (no)

---

target: 5-hydroxytryptamine receptor 2A (Homo sapiens, UniProt P28223)
Sequence (P28223 whole entry): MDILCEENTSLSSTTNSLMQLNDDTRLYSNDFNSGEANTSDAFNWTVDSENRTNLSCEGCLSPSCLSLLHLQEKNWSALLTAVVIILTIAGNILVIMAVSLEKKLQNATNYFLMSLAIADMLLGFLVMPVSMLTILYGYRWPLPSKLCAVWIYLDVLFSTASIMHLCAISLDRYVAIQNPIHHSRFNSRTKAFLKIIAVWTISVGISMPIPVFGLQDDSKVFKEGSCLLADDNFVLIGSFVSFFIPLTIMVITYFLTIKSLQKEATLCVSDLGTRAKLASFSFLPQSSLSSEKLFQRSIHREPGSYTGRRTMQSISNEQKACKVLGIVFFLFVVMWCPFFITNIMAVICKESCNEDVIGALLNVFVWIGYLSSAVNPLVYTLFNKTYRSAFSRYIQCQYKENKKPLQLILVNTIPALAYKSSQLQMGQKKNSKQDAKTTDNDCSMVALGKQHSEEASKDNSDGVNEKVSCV
value-type: log10 Ki (log10 of the value in nM)
Remember, log10 of Ki, in nM.

Some solved cases for reference:
CN(C)CC1C[C@@H]2c3ccccc3Cc3ccccc3[C@H]2O1 (stereo not given in full)	1.34
CN(C)CC1C[C@@H]2c3ccccc3OCc3ccccc3[C@H]2O1 (stereo not given in full)	1.96
CN1CCN(CC2C[C@@H]3c4ccccc4Sc4ccccc4[C@H]3O2)CC1 (stereo not given in full)	1.24
c1ccc(C2CCN(CC3C[C@@H]4c5ccccc5Cc5ccccc5[C@H]4O3)CC2)cc1 (stereo not given in full)	3.04
Clc1cccc(N2CCN(CC3C[C@@H]4c5ccccc5Cc5ccccc5[C@H]4O3)CC2)c1 (stereo not given in full)	1.75

input: Provide log10 Ki, tested on 5-hydroxytryptamine receptor 2A (Homo sapiens, UniProt P28223), for CN(C)CC1C[C@H]2c3ccccc3Cc3ccccc3[C@H]2O1 (stereo not given in full) .
output: 2.01

input: Provide log10 Ki, tested on 5-hydroxytryptamine receptor 2A (Homo sapiens, UniProt P28223), for CNCC1C[C@@H]2c3ccccc3Cc3ccccc3[C@H]2O1 (stereo not given in full) .
output: 1.69

input: Provide log10 Ki, tested on 5-hydroxytryptamine receptor 2A (Homo sapiens, UniProt P28223), for CN(C)CC1C[C@H]2c3ccccc3Oc3ccccc3[C@H]2O1 (stereo not given in full) .
output: 1.97

input: Provide log10 Ki, tested on 5-hydroxytryptamine receptor 2A (Homo sapiens, UniProt P28223), for CN(C)C[C@@H]1C[C@@H]2c3ccccc3Cc3ccccc3[C@H]2O1 .
output: 1.29

input: Provide log10 Ki, tested on 5-hydroxytryptamine receptor 2A (Homo sapiens, UniProt P28223), for CN(C)CC1C[C@@H]2c3ccccc3N(C)c3ccccc3[C@H]2O1 (stereo not given in full) .
output: 1.91

---

Sequence of the target: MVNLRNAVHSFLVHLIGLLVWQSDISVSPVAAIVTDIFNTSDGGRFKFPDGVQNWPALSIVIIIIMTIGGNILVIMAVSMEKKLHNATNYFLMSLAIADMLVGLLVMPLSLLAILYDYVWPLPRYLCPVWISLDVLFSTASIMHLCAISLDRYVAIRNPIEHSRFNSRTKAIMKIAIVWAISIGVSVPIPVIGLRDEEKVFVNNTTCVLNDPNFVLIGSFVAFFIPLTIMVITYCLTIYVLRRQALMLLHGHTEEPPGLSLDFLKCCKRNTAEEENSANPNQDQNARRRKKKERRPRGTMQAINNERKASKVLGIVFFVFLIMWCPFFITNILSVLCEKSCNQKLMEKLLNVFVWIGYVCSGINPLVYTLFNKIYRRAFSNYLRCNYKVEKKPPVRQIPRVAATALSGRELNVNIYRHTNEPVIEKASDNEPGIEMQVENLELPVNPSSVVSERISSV
Recorded Ki values for a group of molecules are listed next.
Quick note: give the figure in nM, leave out the unit.

Some solved cases for reference:
CN(C)CC1C[C@@H]2c3ccccc3OCc3ccccc3[C@H]2O1 (stereo partly drawn)	32.5
CN(C)C[C@H]1C[C@@H]2c3ccccc3Cc3ccccc3[C@H]2O1	0.93

Shift focus to the following entry.
input: Give recorded Ki. CNC[C@@H]1CC2c3ccccc3Cc3ccccc3C2O1 (single isomer, unassigned)
output: 15.9
